Just for reference, paper PMC7865074 is where these values come from.

tested.on: T1, biotinylated WNV NS5 PBM peptide (West Nile virus, also: biotinyl group, end not given here)
T1 construct: bait of the holdup assay; also called 13-mer peptide; source: synthetic peptide (solid phase, Fmoc; Proteogenix)
T1 peptide: RYEDTTLVEDTVL
method.summary: holdup assay (automated high-throughput chromatography); biotinylated NS5 PBM peptide as bait against 259 human PDZ domains expressed in E. coli; read-out binding intensity (BI), mean of replicates; BI threshold 0.2 for a significant interaction
Ends that are not written are not given here.
reported.property: BI (holdup binding intensity)
Lab note: record the figure alone, no unit after it.

Beta-1-syntrophin, PDZ domain (holdup construct) (domain or fragment, human, UniProt Q13884 112-195, looked up, also called SNTB1; source: E. coli, PDZome V.2 library, high-throughput expression) GVKVLKQELGGLGISIKGGKENKMPILISKIFKGLAADQTQALYVGDAILSVNGADLRDATHDEAVQALKRAGKEVLLEVKYMR | 0.22
Na(+)/H(+) exchange regulatory cofactor NHE-RF1, PDZ domain 1 (holdup construct) (domain or fragment, human, UniProt O14745 14-94, looked up, source: E. coli, PDZome V.2 library, high-throughput expression) LCCLEKGPNGYGFHLHGEKGKLGQYIRLVEPGSPAEKAGLLAGDRLVEVNGENVEKETHQQVVSRIRAALNAVRLLVVDPE | 0.68
Partitioning defective 3 homolog, PDZ domain 3 (holdup construct) (domain or fragment, human, UniProt Q8TEW0 590-677, looked up, also called PARD3_3; source: E. coli, PDZome V.2 library, high-throughput expression) EVPLNDSGSAGLGVSVKGNRSKENHADLGIFVKSIINGGAASKDGRLRVNDQLIAVNGESLLGKTNQDAMETLRRSMSTEGNKRGMIQ | 0.29
SH3 and multiple ankyrin repeat domains protein 2, PDZ domain (holdup construct) (domain or fragment, human, UniProt Q9UPX8 626-720, looked up, also called SHANK2; source: E. coli, PDZome V.2 library, high-throughput expression) TVVLQKKDNEGFGFVLRGAKADTPIEEFTPTPAFPALQYLESVDEGGVAWQAGLRTGDFLIEVNNENVVKVGHRQVVNMIRQGGNHLVLKVVTVT | 0.39

Note: attention shifts to another entry.
stdin: Param item = Disks large homolog 4, PDZ domain 3 (holdup construct) (domain or fragment, human, UniProt P78352 313-393, looked up, also called DLG4_3; source: E. coli, PDZome V.2 library, high-throughput expression) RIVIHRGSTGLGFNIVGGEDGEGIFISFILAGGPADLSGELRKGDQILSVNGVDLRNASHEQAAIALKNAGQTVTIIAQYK ; retrieve measured BI (holdup binding intensity).
stdout: 0.24
